All figures here come from patent US8791132B2.

molecular target: human recombinant adrenergic α2B receptor (Homo sapiens, UniProt P18089); construct: expressed in transfected cells; host or cells: CHO-K1; test: Radioligand binding, adrenergic α2B ([3H]Rauwolscine); settings: compound at 0.03 μM; [3H]Rauwolscine; repeat datapoints each shown; 0.03 µM
reported_property: Percentage inhibition of ligand binding, Adrenergic α2B (0.03 μM) (%)

Examples with answers:
[[record]]
compound = "Cc1cnc2c(c1)c1c(n2CC(N)c2ccc(C#N)cc2)CCNC1 (single isomer, unassigned) [160b]"
observed_result = 41

[[record]]
compound = "Cc1ccc2c(c1)c1c(n2CC(O)c2cc[nH]c(=O)c2)CCN2CCCC12 (single isomer, unassigned) [II-132a]"
observed_result = 40

[[record]]
compound = "Cc1ccc2c(c1)c1c(n2CC(OC(=O)c2ccncc2)c2ccncc2)CCN(C)C1 (single isomer, unassigned) [147a]"
observed_result = 72


I = Cc1cnc2c(c1)c1c(n2CC(O)c2ccc(F)cc2)CCN(C)C1 (single isomer, unassigned) [136b]
II = CN1CCc2c(c3cc(Cl)cnc3n2CC(C)(O)c2ccc(C(F)(F)F)nc2)C1 (single isomer, unassigned) [II-109a]
Lower value for measured Percentage inhibition of ligand binding, Adrenergic α2B (0.03 μM)? Options: I , II Use the label to indicate which entry you chose.
II

====

Molecular target: human recombinant adrenergic α2B receptor (Homo sapiens, UniProt P18089)
Construct: expressed in transfected cells; host or cells: CHO-K1
Sequence (P18089 1-450): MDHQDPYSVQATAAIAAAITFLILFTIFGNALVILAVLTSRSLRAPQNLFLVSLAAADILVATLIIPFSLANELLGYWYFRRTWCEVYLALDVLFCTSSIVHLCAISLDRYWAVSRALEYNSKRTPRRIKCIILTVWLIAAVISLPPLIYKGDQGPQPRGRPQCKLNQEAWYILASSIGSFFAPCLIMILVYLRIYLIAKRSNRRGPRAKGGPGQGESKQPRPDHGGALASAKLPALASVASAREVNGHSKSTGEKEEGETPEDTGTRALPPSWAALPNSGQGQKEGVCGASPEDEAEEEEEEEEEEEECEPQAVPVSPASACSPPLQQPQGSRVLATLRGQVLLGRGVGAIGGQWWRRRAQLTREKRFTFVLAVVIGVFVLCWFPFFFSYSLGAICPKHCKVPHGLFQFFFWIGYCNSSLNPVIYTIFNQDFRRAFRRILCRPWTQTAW
Assay: Radioligand binding, adrenergic α2B ([3H]Rauwolscine)
Settings: compound at 0.03 μM; [3H]Rauwolscine; repeat assays, each datapoint shown; 0.03 µM
Procedure: To evaluate in radioligand binding assays the activity of compounds of the invention, human recombinant adrenergic α2B receptor expressed in Chinese hamster ovary (CHO) K1 cells (Uhlen, S. et al, Eur. J. Pharmacol. 343(1):93, 1998) in a modified Tris-HCl buffer (50 mM Tris-HCl, pH 7.4, 12.5 mM MgCl2, 1 mM EDTA, 0.2% BSA) was used. […] Receptor proteins were filtered and washed, the filters were then counted to determine [3H]Rauwolscine specifically bound. […]
reported_property: Percentage inhibition of ligand binding, Adrenergic α2B (%)

Examples with answers:
[[record]]
compound = "Cc1ccc2c(c1)c1c(n2CC(O)c2ccncc2)C(C)N2CCC1C2 (single isomer, unassigned) [38b]"
measurement_target = "human recombinant adrenergic α2B receptor (Homo sapiens, UniProt P18089)"
observed_result = 17

[[record]]
compound = "CN1CCc2c(c3cccc(Cl)c3n2CC(O)c2ccncc2)C1 (single isomer, unassigned) [45b]"
measurement_target = "human recombinant adrenergic α2B receptor (Homo sapiens, UniProt P18089)"
observed_result = 96

[[record]]
compound = "CN1CCc2c(n(CC(O)c3ccncc3)c3ccc(Cl)cc23)CC1 (stereo not drawn) [compound 15]"
measurement_target = "human recombinant adrenergic α2B receptor (Homo sapiens, UniProt P18089)"
observed_result = 93

[[record]]
compound = "Cc1ccc2c(c1)c1c(n2CC(C)(O)c2ccncc2)CN(C)CC1 (single isomer, unassigned) [19b]"
measurement_target = "human recombinant adrenergic α2B receptor (Homo sapiens, UniProt P18089)"
observed_result = 27

[[record]]
compound = "Cc1ccc2c(c1)c1c(n2CC(OC(=O)C(N)C(C)C)c2ccncc2)CCN(C)C1 (single isomer, unassigned) [25a]"
measurement_target = "human recombinant adrenergic α2B receptor (Homo sapiens, UniProt P18089)"
observed_result = 54


a = CN1CCc2c(c3cc(Cl)ccc3n2CC(O)c2cccnc2)C1 (single isomer, unassigned) [7b]
b = OC(Cn1c2c(c3cccnc31)CN1CCCC1C2)c1ccncc1 (single isomer, unassigned) [37c]
Lower value for measured Percentage inhibition of ligand binding, Adrenergic α2B? Options: a , b Use the label to indicate which entry you chose.
b

====

target: human recombinant adrenergic α2B receptor (Homo sapiens); construct: expressed in transfected cells; host or cells: CHO-K1; test: Radioligand binding, adrenergic α2B ([3H]Rauwolscine); conditions: compound at 0.1 μM; [3H]Rauwolscine; repeat datapoints each shown; 0.1 µM
reported_property: Percentage inhibition of ligand binding, Adrenergic α2B (0.1 μM) (%)

[[record]]
structure_string = "Cc1ccc2c(c1)c1c(n2CNc2ccccn2)CCN(C)C1"
measurement_target = "human recombinant adrenergic α2B receptor (Homo sapiens)"
readout_unit = "%"
observed_result = 70

[[record]]
structure_string = "C/C(=C\\n1c2c(c3cc(C)ccc31)CN(C)CC2)c1sccc1C"
measurement_target = "human recombinant adrenergic α2B receptor (Homo sapiens)"
readout_unit = "%"
observed_result = 107

[[record]]
structure_string = "C/C(=C\\n1c2c(c3cc(C)ccc31)CN(C)CC2)c1ccc(C)nc1"
measurement_target = "human recombinant adrenergic α2B receptor (Homo sapiens)"
readout_unit = "%"
observed_result = 101

[[record]]
structure_string = "COc1ccc(/C(C)=C/n2c3c(c4cc(C)ccc42)CCN(C)CC3)cc1F"
measurement_target = "human recombinant adrenergic α2B receptor (Homo sapiens)"
readout_unit = "%"
observed_result = 93

[[record]]
structure_string = "CN1CCc2c(c3cccc(Cl)c3n2CCc2ccccc2)C1"
measurement_target = "human recombinant adrenergic α2B receptor (Homo sapiens)"
readout_unit = "%"
observed_result = 106

[[record]]
structure_string = "C/C(=C\\n1c2c(c3cc(C)ccc31)CN(C)CC2)c1ccncn1"
measurement_target = "human recombinant adrenergic α2B receptor (Homo sapiens)"
readout_unit = "%"
observed_result = 76

[[record]]
structure_string = "COc1ccc(/C(C)=C/n2c3c(c4cc(Cl)ccc42)CCN(C)CC3)cc1F"
measurement_target = "human recombinant adrenergic α2B receptor (Homo sapiens)"
readout_unit = "%"
observed_result = 97


====

target: human recombinant adrenergic α2A receptor (Homo sapiens); construct: expressed in transfected cells; host or cells: insect Sf9 cells; assay: Radioligand binding, adrenergic α2A ([3H]MK-912); conditions: read-out: Percentage inhibition of ligand binding, Adrenergic α2A (0.1 μM), compound at 0.1 μM; [3H]MK-912; repeat datapoints each shown
Sequence (P08913 whole entry): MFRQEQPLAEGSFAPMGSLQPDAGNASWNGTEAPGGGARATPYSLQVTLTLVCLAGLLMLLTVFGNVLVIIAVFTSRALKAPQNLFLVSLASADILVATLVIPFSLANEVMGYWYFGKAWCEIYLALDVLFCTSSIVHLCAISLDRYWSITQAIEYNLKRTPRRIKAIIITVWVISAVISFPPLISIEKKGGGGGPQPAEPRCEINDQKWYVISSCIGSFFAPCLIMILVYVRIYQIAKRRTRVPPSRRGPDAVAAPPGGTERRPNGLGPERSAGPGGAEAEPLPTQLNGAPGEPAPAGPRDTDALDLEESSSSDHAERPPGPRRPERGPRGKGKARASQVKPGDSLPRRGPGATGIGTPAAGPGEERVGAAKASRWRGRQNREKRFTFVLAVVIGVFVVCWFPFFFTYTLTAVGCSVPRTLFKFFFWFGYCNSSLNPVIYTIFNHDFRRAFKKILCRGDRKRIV
reported_property: inhibition at 0.1 µM (%)

[[record]]
structure_string = "C/C(=C\\n1c2c(c3cc(Cl)ccc31)CCN(C)CC2)c1ccccc1Cl"
observed_result = 80


I = C/C(=C\n1c2c(c3cc(C)ccc31)CN(C)CC2)c1ccnn1C
II = C/C(=C\n1c2c(c3cc(Cl)ccc31)CCN(C)CC2)c1ccccc1F
Two entries are listed, I and II . Which one carries the higher inhibition at 0.1 µM? Use the label to indicate which entry you chose.
II

====

Target: rat adrenergic α1B receptor (Rattus norvegicus)
Construct: rat adrenergic α1B receptor obtained from Wistar Rat liver; from tissue; host or cells: Wistar rat liver
Sequence (P15823 1-515): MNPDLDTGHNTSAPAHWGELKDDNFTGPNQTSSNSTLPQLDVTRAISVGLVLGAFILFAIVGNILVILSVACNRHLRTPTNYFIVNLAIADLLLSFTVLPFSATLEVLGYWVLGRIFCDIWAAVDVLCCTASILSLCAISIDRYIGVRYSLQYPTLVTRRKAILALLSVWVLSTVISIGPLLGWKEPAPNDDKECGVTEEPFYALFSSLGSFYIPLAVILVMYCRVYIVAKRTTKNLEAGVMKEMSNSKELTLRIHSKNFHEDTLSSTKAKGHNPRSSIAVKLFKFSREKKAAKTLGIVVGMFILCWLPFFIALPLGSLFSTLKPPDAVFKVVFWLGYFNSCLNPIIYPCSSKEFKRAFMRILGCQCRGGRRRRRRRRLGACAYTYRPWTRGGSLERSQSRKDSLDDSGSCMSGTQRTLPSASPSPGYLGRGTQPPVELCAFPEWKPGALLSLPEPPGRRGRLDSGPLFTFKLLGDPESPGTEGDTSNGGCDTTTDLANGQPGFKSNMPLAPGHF
Experiment: Radioligand binding, adrenergic α1B ([3H]Prazosin)
Details: read-out: Percentage inhibition of ligand binding, Adrenergic α1B (0.1 μM), compound at 0.1 μM; [3H]Prazosin; repeat datapoints each shown
reported_property: inhibition at 0.1 µM (%)

Examples with answers:
[[record]]
molecule = "Cc1ccc2c(c1)c1c(n2CC(CC(C)(C)O)c2ccncc2)CCN(C)C1 (stereo not shown)"
reported_property = "inhibition at 0.1 µM"
observed_result = 15

[[record]]
molecule = "Cc1ccc2c(c1)c1c(n2CC(O)c2ccc(F)cc2)CCN2CCCC12 (single isomer, unassigned) [II-120a]"
reported_property = "inhibition at 0.1 µM"
observed_result = 99

[[record]]
molecule = "COc1ccc(C(C)(O)Cn2c3c(c4cc(C)ccc42)CN(C)CC3)cc1F (stereo not shown)"
reported_property = "inhibition at 0.1 µM"
observed_result = 66

[[record]]
molecule = "Cc1ccc2c(c1)c1c(n2CC(C)(O)c2ccc(C)nc2)CCN2CCCC12 (stereo not shown) [II-128a]"
reported_property = "inhibition at 0.1 µM"
observed_result = 61

[[record]]
molecule = "Cc1ccc2c(c1)c1c(n2CNc2ccccn2)CCN(C)C1"
reported_property = "inhibition at 0.1 µM"
observed_result = 21

[[record]]
molecule = "C=C(Cn1c2c(c3cc(C)ccc31)CN(C)CC2)c1ccncc1"
reported_property = "inhibition at 0.1 µM"
observed_result = 6


a = Cc1ccc2c(c1)c1c(n2CC(C)(O)c2cccnc2)C(c2ccccc2)N(C)CC1 (stereo not shown) [II-112a]
b = C/C(=C\n1c2c(c3cc(C)ccc31)CN(C)CC2)c1cnc(N(C)C)nc1
c = C/C(=C\n1c2c(c3cc(Cl)ccc31)CCN(C)CC2)c1ccccc1Cl
d = Cc1ccc2c(c1)c1c(n2CC(CCO)c2ccncc2)CCN(C)C1 (stereo not shown)
Your job: order these 4 records by inhibition at 0.1 µM, ascending. Provide your answer as the labels ordered per the instruction.
a, d, c, b
(a: 5%, d: 13%, c: 48%, b: 71%)

1 = C/C(=C\n1c2c(c3cc(C)ccc31)C1CCCN1CC2)c1ccc(F)cc1 (single isomer, unassigned) [194b]
2 = C/C(=C\n1c2c(c3cc(C)ccc31)CN(C)CC2)c1cnn(C)c1
Two entries are listed, 1 and 2 . Which one carries the higher inhibition at 0.1 µM? Use the label to indicate which entry you chose.
1
(1: 100%, 2: 13%)
